Tested on: HEK-293T
Test: Incucyte cell viability with HEK293T; note: unitless GR value; below 1 slowed growth and below 0 cell loss
Type: toxicity, cell-based
Details: human, 18 h, 10 µM, compound concentration 10 uM, replicate number 1
Mark condition not met for Growth Rate values under 0.7, and condition met for everything at or above.

compound	group
CCc1ncnc(N2CCN(C(C)=O)CC2)c1C#Cc1ccc(N)nc1.Cl.Cl	condition not met
CC(=O)N1CCC(c2ccc(C(=O)NC3=NCCN3)cc2C(F)(F)F)CC1	condition met
Cc1cc(C(C#N)c2ccc(Cl)cc2)c(Cl)cc1NC(=O)c1cc(I)cc(I)c1O (stereo not drawn)	condition not met
[2H]C([2H])([2H])NC(=O)c1nnc(NC(=O)C2CC2)cc1Nc1cccc(-c2ncn(C)n2)c1OC	condition met
CN[C@@H](C)C(=O)N[C@H](C(=O)N1CCC[C@H]1C(=O)Nc1sc(-c2ncco2)nc1-c1ccccc1)C1CCCCC1	condition met
CN(C)[C@H]1CC[C@H](Nc2ncc3ncnc(Nc4ccc(F)c(Cl)c4)c3n2)CC1	condition not met
O=C(CCSCc1ccco1)NNC(=O)N1Cc2ccccc2Oc2ccc(Cl)cc21	condition met
